Taken from ChEMBL document CHEMBL5104224.

Listing of recorded selectivity ratio by entry.
- assay details: Selectivity index, ratio of IC50 for cytotoxicity against African green monkey Vero E6 cells to MIC50 for antimycobacterial activity against Mycobacterium bovis BCG ATCC 35734
- Format: toxicity, cell-based, Vero C1008
- conditions used: read-out: Selectivity Index

Cc1nc2c(n1CCCCCCCCC[P+](c1ccccc1)(c1ccccc1)c1ccccc1)C(=O)c1ccccc1C2=O; 21

Query block: Please look up its selectivity ratio: Cc1nc2c(n1CCCCCCCCCCC[P+](c1ccccc1)(c1ccccc1)c1ccccc1)C(=O)c1ccccc1C2=O
Result block: 11

Query block: Please look up its selectivity ratio: Cc1nc2c(n1CCCCCCCCCCC[P+](C1CCCCC1)(C1CCCCC1)C1CCCCC1)C(=O)c1ccccc1C2=O
Result block: 7
